assay: calcium flux activation in mu-opioid HEK293 cells, confirmation, counter-screen for TRPC4 activator project, cell-based, HEK293 mu-opioid receptor line (AID 449723); conditions: Fluo-4 calcium fluorescence, at 10 µM;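 note: counter screen cells carry the mu-opioid receptor alone and lack TRPC4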; for activation: reference of the scale not given here
Active and inactive are the calls of the source.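 Rule for the calls: active = hit in primary screen, with calcium signal over 5 SD above buffer well mean in both duplicates; inactive = the rest.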
Possible outcomes: true for active, false for inactive

| compound | cat |
| --- | --- |
| O=[N+]([O-])c1cc2c(cc1CNCCc1ccc3c(c1)OCO3)OCO2 | false |
| Clc1ccc(OCC#CCN2CCCC2)cc1 | false |
| COc1ccc(CCNCc2ccc(SC)cc2)cc1 | false |
| CCN(CC)c1ccc(/C=C/[N+](=O)[O-])cc1 | true |
| CN1CCN(Cc2cc(=O)n3ccsc3n2)CC1 | false |
| CC(Cc1ccccc1Sc1ccccc1)N(C)C (stereo unspecified) | false |
